Where do these numbers come from? They come from PubChem BioAssay (NCI).

# System: IGROV1 ovarian
# assay remarks: NCI-60 one-dose screen, 48 h (100 = growth as untreated, 0 = no growth, -100 = all killed)
# conditions: 10 µM unless noted
This is part of a sample that, as a whole, favours compounds with a hit. Of some 83,000 tested, about 20% had one in any assay. The source made the active and inactive calls. The calls were made as follows: active = growth percent below 10; inactive = the rest.
property measured: growth

Examples with answers:
# molecule, growth
measured = [
    ("O=C1Nc2cc(-c3ccc(NC(=O)c4ccccc4)cc3)ccc2/C1=C/c1ccc[nH]1", "95.3% (inactive)"),
    ("CCNc1nc2cc(Nc3ccnc4cc(Cl)ccc34)ccc2o1", "70.1% (inactive)"),
    ("N#CC1=C(N)Oc2c(cnn2-c2ccc([N+](=O)[O-])cc2[N+](=O)[O-])C1c1ccccc1 (centres undefined)", "100% (inactive)"),
    ("COc1cc(-c2n/c(=C\\c3c(O)[nH]c4ccc(Cl)cc34)cc3c2=Nc2ccccc2-3)ccc1F", "-18% (active)"),
    ("O=C(N/N=C/c1ccc(Oc2ccccc2)cc1)c1cnn2c1NC(c1ccccc1)C2 (centres undefined)", "59.3% (inactive)"),
]

# batch: return growth for each of the 7 molecules below
1. COc1ccc(-c2cnc3c(-c4cccc5cnccc45)cnn3c2)cc1
2. O=C(/C=C/c1ccc(F)cc1)c1ccc(NC(=O)N2CCN(c3cc4c(cc3F)c(=O)c(C(=O)O)cn4C3CC3)CC2)cc1
3. Cc1cccc(NC(=O)Nc2ccc(-c3ccc4c(c3)NC(=O)/C4=C\c3ccc[nH]3)cc2)c1
4. O=C1Nc2cc(Cl)ccc2/C1=C\c1c(-c2ccc(F)cc2)nc2ccccn12
5. Cc1nn(-c2ccccc2)c(Cl)c1/C=C/C(=O)c1ccc(F)cc1
6. CCOC(=O)CC1CSC(N/N=C/c2ccc(-n3cccn3)cc2)=N1 (centres undefined)
7. O=S(=O)(NCCNc1nccc(-c2c(-c3cccc(F)c3)nc3sccn23)n1)c1ccc(Br)cc1

A:
["83.5% (inactive)", "89.5% (inactive)", "78% (inactive)", "14% (inactive)", "104% (inactive)", "114% (inactive)", "8.47% (active)"]

# batch: return growth for each of the 4 molecules below
1. C[C@H](c1nc2ccc(N)cc2[nH]1)[C@H]1CC[C@H]2[C@@H]3CCC4=CC(=O)CC[C@]4(C)[C@H]3CC[C@]12C
2. CCc1ccc(CNc2ccc(N3CCOCC3)c(C(=O)O)c2)cc1
3. COC(=O)/C=C1\S/C(=N\NC(=O)c2cc3ccc2/C=C\c2ccc(cc2)/C=C\3)N(Cc2ccccc2)C1=O
4. COc1cc2c(-c3cc4c(cc3CNCCc3ccc5c(c3)OCO5)OCO4)cccc2c(OC)c1O

A:
1. 85.1% (inactive)
2. 102% (inactive)
3. 42.3% (inactive)
4. 61.6% (inactive)

# batch: return growth for each of the 3 molecules below
1. N#Cc1c(NC(=O)NCc2ccccc2)sc2c1CCCC2
2. CC1(C)CC[C@]2(C(=O)O)CC[C@]3(C)C(=CC[C@@H]4[C@@]5(C)Cc6c([nH]c7ccccc67)C(C)(C)[C@@H]5CC[C@]43C)[C@@H]2C1
3. NC(=NCCCOc1ccc(F)cc1)Nc1ccc(Cl)cc1

A:
28.8% (inactive)
58% (inactive)
30.9% (inactive)

###

I'd be grateful if you could share measured growth for these entries.
# Test system: NCI/ADR-RES ovarian
# assay remarks: NCI-60 one-dose screen, 48 h (100 = growth as untreated, 0 = no growth, -100 = all killed)
# conditions: 10 µM unless noted
This is part of a sample that, as a whole, favours compounds with a hit. Of some 83,000 tested, about 20% had one in any assay. Calls of active or inactive are those of the source. Rule for the calls: active = growth percent below 10; inactive = the rest.

Examples with answers:
# compound, growth
records = [
    ("CCN(Cc1ccccc1)c1ccc(C=O)cc1", "101% (inactive)"),
    ("COc1cc(/C=N/O)nc(-c2ccccn2)c1", "4.37% (active)"),
    ("COc1cc(-c2csc(NC(=O)c3cc(F)cc(C(F)(F)F)c3)n2)cc(OC)c1OC", "49.8% (inactive)"),
    ("Cn1c(-c2c(N)n(CCCN3CCOCC3)c3nc(C#N)c(C#N)nc23)nc2ccccc21", "78.6% (inactive)"),
]

# batch: return growth for each of the 6 compounds below
1. O=C(/C=C(/C=C/c1coc2ccccc12)OB(F)F)/C=C/c1coc2ccccc12
2. N#Cc1c(-c2ccccc2)nc2c(c(-c3ccccc3)nn2-c2ccccc2)c1-c1ccc(O)cc1
3. COc1ccc(C(C)=O)c(OC)c1
4. CCOc1cccc(-c2nc(N)nc(Nc3ccccc3SSc3ccccc3Nc3nc(N)nc(-c4cccc(OCC)c4)n3)n2)c1
5. C#CCNC(=O)c1cccc2c1cc(C)n2-c1nc2c(c(NCc3ccccc3)n1)CCCC2
6. Cn1c(N2NC(=O)C(N=Nc3ccc(S(N)(=O)=O)cc3)C2=O)nc(-c2ccco2)c(C#N)c1=O (stereo not given)

A:
102% (inactive)
70.5% (inactive)
108% (inactive)
19% (inactive)
1.28% (active)
93% (inactive)
